Listed binders paired with reported glycan array binding signal (z-score)
# TARGET_OR_SYSTEM: Kdn(a2-6)Gal(b1-4)GlcNAc
# TEST_SUMMARY: glycan array binding signal (z-score within array); higher = stronger binding
# STUDY_CONDITIONS: glycan notation: IUPAC condensed, linker removed
This is one part of a sample in which the strongest signals are shown more often than they occur.
RECORDED_ENDPOINT: glycan array binding signal (z-score)

* Epa3 (Candida glabrata), Q6VBI8_CANGB (protein) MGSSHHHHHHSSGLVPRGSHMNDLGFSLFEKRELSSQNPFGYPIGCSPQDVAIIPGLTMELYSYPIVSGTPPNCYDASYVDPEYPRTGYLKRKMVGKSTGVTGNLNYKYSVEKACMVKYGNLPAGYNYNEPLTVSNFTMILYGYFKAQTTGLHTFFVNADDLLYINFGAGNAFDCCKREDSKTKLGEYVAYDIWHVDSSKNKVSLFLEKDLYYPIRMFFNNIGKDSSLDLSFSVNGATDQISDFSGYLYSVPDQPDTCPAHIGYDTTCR | -0.334
* EfCBM33A (Enterococcus faecalis), Q838S1 (protein) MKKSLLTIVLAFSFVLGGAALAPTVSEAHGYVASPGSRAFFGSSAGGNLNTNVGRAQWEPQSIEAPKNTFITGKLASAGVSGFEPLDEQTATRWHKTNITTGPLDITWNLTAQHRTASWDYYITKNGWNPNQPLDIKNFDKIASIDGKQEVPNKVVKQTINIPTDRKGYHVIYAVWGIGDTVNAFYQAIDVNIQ | 0.328
* Galatrox (Botrops atrox), P0DM53 (protein) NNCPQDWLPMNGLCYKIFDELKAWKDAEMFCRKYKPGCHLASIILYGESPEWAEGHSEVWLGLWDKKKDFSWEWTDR | 0.063
* AFL5 (Aspergillus fumigatus), Q4WB00 (protein) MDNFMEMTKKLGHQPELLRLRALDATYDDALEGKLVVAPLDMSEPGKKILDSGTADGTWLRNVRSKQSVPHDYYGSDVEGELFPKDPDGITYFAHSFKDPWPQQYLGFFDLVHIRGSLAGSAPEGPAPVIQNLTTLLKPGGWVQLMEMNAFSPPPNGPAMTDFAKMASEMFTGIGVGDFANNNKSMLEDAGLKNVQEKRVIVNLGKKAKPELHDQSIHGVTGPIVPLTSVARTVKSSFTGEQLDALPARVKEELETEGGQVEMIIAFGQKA | 0.092
